Provide the recorded PBM binding z-score for the entries that follow.
System: PPARg:RXRa DBDmut IVT, anti-RXR (DBD mutation: RXRa K156A/R161A, NR concentration 270 nM, RXRa partner concentration 90 nM)
EXPERIMENT_DESCRIPTION: PBM binding z-score (relative to random genomic background probes); higher = stronger binding; sequences stand for … in GC…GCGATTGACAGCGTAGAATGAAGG

So, CTACCAAGGTGAACAAAGTCGTTGATTACTATTC ? Its PBM binding z-score was 2.31

For reference, reported PBM binding z-score for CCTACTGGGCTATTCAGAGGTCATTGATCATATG stands at 2.84

The sequence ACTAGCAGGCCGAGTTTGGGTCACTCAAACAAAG showed PBM binding z-score equal to -0.462

Briefly, PBM binding z-score measured for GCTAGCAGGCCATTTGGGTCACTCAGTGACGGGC : 1.94

Measured PBM binding z-score of CCGATTGGGGCATAAGGTTACCATAAGCCAGCCC : 1.21

Note to self: PBM binding z-score recorded for GCTCACGGGTCAAAGGTTATAGCATGAATAGAAT was 2.57

Notebook: CCTGCTAGGTCAATGGTCTGCTAAAGCAGCTCGC , PBM binding z-score read as 4.23

Just so you know, measured PBM binding z-score for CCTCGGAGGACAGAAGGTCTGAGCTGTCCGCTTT came out at 0.154

Given item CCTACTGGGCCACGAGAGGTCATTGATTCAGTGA , the value recorded as its PBM binding z-score is 6.03

PBM binding z-score recorded for this sequence, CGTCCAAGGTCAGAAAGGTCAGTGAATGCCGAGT , is 1.91

Lab note: measured PBM binding z-score of CCTTACGGATCAAGGTTATAGCACGGGTGGTACG was -0.655

GET /value?item= CGTCCAAGGTCAGCAGGGCAGTGAAAGCGACGTG &field=PBM binding z-score returns 2.44

Short answer for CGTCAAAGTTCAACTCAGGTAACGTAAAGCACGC : PBM binding z-score was 0.639

Entry ACTAGCAGGCCAAGGGTCATTCAAGATTAGTCCG — recorded PBM binding z-score = 0.965

Looking up TCGAGTAGTTTAGGGGCATTCAGAATGGCGTCGA , I see its PBM binding z-score listed as 0.75

Quick note, PBM binding z-score for CGTACTAGGTCAAGGACAGTGAATCTCCGCACGC landed at 7.55

Summary for this sequence, CCTTACGGGTCACTCCAGGATATAGCATCGGAGT : PBM binding z-score is 2.53

PBM binding z-score in this record for CCTTTCGGGTCAAGGTTATAGCACGGGTGGTACG : 1.96

Per the records, this sequence ( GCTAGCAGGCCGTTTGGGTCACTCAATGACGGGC ) has PBM binding z-score equal to -0.553

Value of PBM binding z-score reported for the sequence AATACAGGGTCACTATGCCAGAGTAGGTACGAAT is 3.26

Entry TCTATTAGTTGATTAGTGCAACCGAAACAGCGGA — recorded PBM binding z-score = 1.81

Record TGTCTAAGTTCAAAGGTAACGTAAGTATCCACAC . Reported PBM binding z-score: -0.293

Per the records, this sequence ( CGGCAAAGTTCAACTAAGGTAACGTAAAGCACGC ) has PBM binding z-score equal to 0.283

Value of PBM binding z-score reported for the sequence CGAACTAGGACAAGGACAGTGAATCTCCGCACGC is 5.04

Documented PBM binding z-score of GCTCGGAGGACAAGCTCAGAGCTTTGTCCGTAGA : -0.93

# sequence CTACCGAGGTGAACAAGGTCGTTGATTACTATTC ; its PBM binding z-score = 2.91
